ASSAY_NAME: in vitro
MEASUREMENT_PARAMETERS: dog
Structures can show the parent of a compound that is named as a salt.
This section presents compounds with their documented CC50 values.

COMPOUND	CC50
CC(=O)N[C@H]1[C@H]([C@H](O)[C@H](O)CO)OC(C(=O)O)=C[C@@H]1N=C(N)N [Zanamivir, reference compound]	> 10000 µg/mL
CC1=NCCc2c1[nH]c1cc(O)ccc21	> 10000 µg/mL
c1ccc2c(c1)[nH]c1cnccc12	> 10000 µg/mL
Cc1nccc2c1[nH]c1ccccc12	7180 µg/mL
CNC(=O)Oc1ccc2c(c1)[C@]1(C)CCN(C)[C@@H]1N2C	> 10000 µg/mL

[ask] Respond only with CC50 recorded for NC12CC3CC(CC(C3)C1)C2 [Amantadine HCl, reference compound]
[reply] 1100 µg/mL

[ask] Respond only with CC50 recorded for CC[C@@H](CO)NC(=O)[C@@H]1C=C2c3cccc4[nH]cc(c34)C[C@H]2N(C)C1
[reply] 8230 µg/mL

[ask] Respond only with CC50 recorded for O=C1C[C@@H]2OCC=C3CN4CC[C@]56c7ccccc7N1[C@H]5[C@H]2[C@H]3C[C@H]46 [Strychnine Sulfate, Strychnine sulfate]
[reply] > 10000 µg/mL

[ask] Respond only with CC50 recorded for COc1ccc2c(c1)[nH]c1c(C)nccc12
[reply] > 10000 µg/mL

[ask] Respond only with CC50 recorded for COc1ccc2c3c([nH]c2c1)C(C)=NCC3
[reply] 475 µg/mL

[ask] Respond only with CC50 recorded for COC(=O)[C@H]1[C@H]2C[C@@H]3c4[nH]c5cc(OC)ccc5c4CCN3C[C@H]2C[C@@H](OC(=O)c2cc(OC)c(OC)c(OC)c2)[C@@H]1OC
[reply] 1400 µg/mL

[ask] Respond only with CC50 recorded for COc1cc2c(cc1OC)[C@@]13CCN4CC5=CCO[C@H]6CC(=O)N2[C@H]1[C@H]6[C@H]5C[C@H]43
[reply] > 10000 µg/mL
